TARGET_SYSTEM: Protein kinase 7 (PK7), Plasmodium falciparum 3D7 (PF3D7_0213400)
TEST: inhibition of Plasmodium PK7 catalytic activity – biochemical, TCAMS antimalarial set, Kinase-Glo luminescence (AID 1159587)
STUDY_CONDITIONS: recombinant PfPK7, Kinase-Glo ATP depletion luminescence
Active and inactive are the calls of the source. The rule behind the calls is not given here.
QUANTITY_NAME: outcome

Sample records with outcome:
COc1ccc(-c2ccc(NC(=O)c3ccc(C#N)cc3)cc2)cc1CN1CCNCC1 = inactive
CC(=O)c1ccc(NC(=O)NNC(=O)c2ccc(CCN3CCC(c4nc(COCC(F)(F)F)c(-c5ccc(F)cc5)o4)CC3)cc2)cc1 = inactive
Cc1cccc2[nH]c(-c3ccc(-c4ccc(CN5CCN(c6cnccn6)CC5)cc4)s3)nc12 = inactive
NC(=O)CNC(=O)CCCN=C(N)N = inactive
Cc1onc(-c2ccccc2)c1-c1nc(NCCC(c2ccccc2)c2ccccc2)no1 = inactive
COc1cc2nc(N3CCC(c4ccccc4)CC3)nc(NCc3ccc(=O)[nH]c3)c2cc1OC = inactive
CN1CCCC(CN2CCN(Cc3cccc(-c4ccc(-c5nc6ccccc6[nH]5)s4)c3)CC2)C1 (configuration not stated) = inactive
CCN(CC)CCN(Cc1ccc(-c2ccc(C(F)(F)F)cc2)cc1)C(=O)Cn1c(SCc2ccc(F)c(F)c2F)nc(=O)c2c1CCC2 = inactive

Query: Please look up its outcome: Cc1cc(C(=O)Nc2nc(-c3ccccn3)nc3ccsc23)no1
Result: inactive

Query: Please look up its outcome: CS(=O)(=O)c1ccc(CCNCc2ccc(-c3ccc(CN(C(=O)C4CC(=O)c5ccccc54)C4CCN(Cc5ccccc5)CC4)cc3)nc2)cc1 (configuration not stated)
Result: inactive

----------
TEST: human hepatoma cell viability loss – ATP luminescence, cytotoxicity control for P. falciparum antimalarial project, primary screen (AID 2303);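 note: 0% = DMSO wells and 100% = digitonin-killed cells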
STUDY_CONDITIONS: HepG2 viability, 24-48 h, at 10 µM, stronger effect = higher value
inhibition overview
Note: unit % is implicit; provide only the numeric part.

COc1ccc2nccc([C@@H](O)CN3CCC(NCc4ccc(OC)c(NC=O)c4)CC3)c2c1 = 0

Query: Please look up its inhibition: CC(C)C[C@H](NC(=O)c1cc(-c2ccc(F)cc2)no1)C(=O)O (tested in a mixture with another compound)
Result: 7

Query: Please look up its inhibition: O=C(/C=C/c1ccc(Cl)c(Cl)c1)NC1CCC(CN2CCC(Cc3cc4ccccc4[nH]3)CC2)CC1 (centres undefined)
Result: 99

Query: Please look up its inhibition: COc1ccc2c(=O)c(C3CCC(c4ccc(Cl)cc4)CC3)c(C)[nH]c2c1 (centres undefined)
Result: 2

Query: Please look up its inhibition: O=C(Nc1cccc(CN2CCCN(Cc3ncc[nH]3)CC2)c1)c1ccc2ccccc2c1
Result: 13

Query: Please look up its inhibition: CCCNCc1ccc(-c2ccc(CN(Cc3cnc(C)cn3)C(=O)CC#N)cc2)nc1
Result: 4

Query: Please look up its inhibition: O=S(=O)(Nc1cccc(CCN2CCC(N3CCCCC3)CC2)c1)c1ccc(Oc2ccccc2)nc1
Result: 8

Query: Please look up its inhibition: Cc1cc(NN=Cc2ccc(F)cc2)c2cccc(C)c2n1
Result: 7

Query: Please look up its inhibition: CCOc1ccccc1C1CCN(CCCCNC(=O)c2ccc(NC(=O)c3ccc(Cl)cc3)cc2)CC1
Result: 13

Query: Please look up its inhibition: COc1cc(NC(=O)c2sc(-c3ccc(Cl)cc3)cc2NC(=O)c2ccncc2)ccc1OCCN1CCCC1
Result: 100

Query: Please look up its inhibition: Cc1c(C)n(Cc2ccccc2)c2ncnc(OC3CCN(CC(=O)NCC4CC4)CC3)c12
Result: 17

----------
TEST: antimalarial activity against Dd2 strain (AID 2302);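 note: 0% = DMSO untreated growth and 100% = chloroquine plus artemisinin killed control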
STUDY_CONDITIONS: P. falciparum Dd2 in RBCs, LDH growth readout, 72 h; at 2 µM; stronger effect = higher value
Active and inactive are the calls of the source.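 Rule for the calls: active = growth inhibition above 50% at the single 2 µM test dose, taken to imply half-maximal potency below 2 µM; inactive = the rest.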
growth inhibition overview

OC(CN(Cc1ccccc1)Cc1ccccc1)Cn1c2ccc(Cl)cc2c2cc(Cl)ccc21 (stereo not given) = 95% (active)

Query: Please look up its growth inhibition: FC(F)(F)c1ccc2nc(-c3ccc(-c4ccc(CNCC5CCCO5)cc4)cc3)[nH]c2c1 (stereo not given)
Result: 100% (active)

Query: Please look up its growth inhibition: N#CC1(c2ccccc2)CCN(c2nc(NCCCN3CCCC3=O)nc(N3CCCC4CCCCC43)n2)CC1 (stereo not given)
Result: 92% (active)

Query: Please look up its growth inhibition: N#Cc1cccc(NC(=O)c2ccc(S(=O)(=O)NCC3CCCN3CC3CCCCC3)cc2)c1 (stereo not given)
Result: 18% (inactive)

Query: Please look up its growth inhibition: CC(=O)c1ccc2nc[nH]c(=O)c2c1
Result: 99% (active)

Query: Please look up its growth inhibition: CCN(CC)CCOC(=O)c1ccc(NC(=O)c2cn(-c3ccccc3)nc2-c2cccs2)cc1
Result: 59% (active)

Query: Please look up its growth inhibition: CC(C)(C)[C@@H](Nc1ccc(C#N)c2ccccc12)C(=O)NC1(Cc2ccc(O)c(Br)c2)CCCC1
Result: 16% (inactive)

Query: Please look up its growth inhibition: COC(=O)c1ccccc1COc1ccc(CC2(NC(=O)[C@H](Nc3ccc(C#N)c4ccccc34)C(C)(C)C)CCCC2)cc1
Result: 82% (active)

Query: Please look up its growth inhibition: Cc1cc(-c2cnc(N)c(-c3ccc(N4CCN(C)CC4)nc3)c2)cc(C)c1O
Result: 33% (inactive)

Query: Please look up its growth inhibition: CN(C)c1ccc(NC(=O)Nc2ccnc3ccc(Br)cc23)cc1
Result: 21% (inactive)

Query: Please look up its growth inhibition: COc1ccc2ncc(F)c(CCN3CCC(NCc4cc(Br)c5c(c4)OCCO5)CC3)c2n1
Result: 94% (active)

Query: Please look up its growth inhibition: CCCNCc1ccc(-c2ccc(CN(CCOC)C(=O)[C@H]3CCCO3)cc2)nc1
Result: 6% (inactive)

Query: Please look up its growth inhibition: O=C(NCCCN1CCN(c2cccc(Cl)c2)CC1)c1ccc(-c2nc3cc(Cl)c(Cl)cc3[nH]2)cc1
Result: 95% (active)

Query: Please look up its growth inhibition: Cc1ccc(NC(=O)c2ccnc(N3CCN(c4ccncc4)CC3)c2)cc1F
Result: 12% (inactive)

Query: Please look up its growth inhibition: NC1CCN(c2nc(NCCCc3ccc(O)cc3)nc(NCc3ccccc3-c3ccc(C(F)(F)F)cc3)n2)CC1
Result: 88% (active)

Query: Please look up its growth inhibition: Cc1nc2nc(N)nc(N)c2c(C)c1Cc1ccccc1
Result: 0% (inactive)

Query: Please look up its growth inhibition: COc1ccc(CC2(CO)CCN(Cc3ccc(O)c(Cl)c3)CC2)cc1
Result: 14% (inactive)

Query: Please look up its growth inhibition: Cc1ccc2nc3sc(C(=O)NCCCN4CCC(N5CCCCC5)CC4)cc3cc2c1
Result: 71% (active)

Query: Please look up its growth inhibition: O=C(Nc1nc2cc(S(=O)(=O)NCCc3ccc(F)cc3)ccc2n1CCCn1ccnc1)c1ccc(Cl)cc1
Result: 55% (active)

Query: Please look up its growth inhibition: CCOC(=O)CCCc1cc(NC2CCN(C)CC2)nc(Nc2ccc(OC)cc2)n1
Result: 17% (inactive)

----------
growth inhibition overview
TEST: antimalarial activity against Dd2 strain (AID 2302);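 note: 0% = DMSO untreated growth and 100% = chloroquine plus artemisinin killed control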
STUDY_CONDITIONS: P. falciparum Dd2 in RBCs, LDH growth readout, 72 h; at 2 µM; stronger effect = higher value
Active and inactive are the calls of the source.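 The calls were made as follows: active = growth inhibition above 50% at the single 2 µM test dose, taken to imply half-maximal potency below 2 µM; inactive = the rest.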

Sample records with growth inhibition:
O=C(NCc1ccc(Cl)c(Cl)c1)c1ccc(-c2nc3ccc(F)cc3[nH]2)cc1 = 9% (inactive)
O=C(/C=C/c1ccc(Cl)cc1)NCCCCCN1CCN(C(=O)C=Cc2ccc(Cl)c(Cl)c2)CC1 = 0% (inactive)
CCc1nnc2sc(-c3cccc(NC(=O)c4ccc(C)c([N+](=O)[O-])c4)c3)nn12 = 46% (inactive)

Query: Please look up its growth inhibition: CC(C)CC(=O)N1CCNC[C@@H]1C(=O)NC1CC1
Result: -2% (inactive)

Query: Please look up its growth inhibition: Cc1ccc(O)cc1Nc1ccnc2ccc(C(C)(C)C)cc12
Result: 100% (active)

----------
inhibition overview
TARGET_SYSTEM: L-lactate dehydrogenase (Plasmodium falciparum (isolate CDC / Honduras)) (UniProt Q27743)
Sequence (Q27743 whole entry, looked up): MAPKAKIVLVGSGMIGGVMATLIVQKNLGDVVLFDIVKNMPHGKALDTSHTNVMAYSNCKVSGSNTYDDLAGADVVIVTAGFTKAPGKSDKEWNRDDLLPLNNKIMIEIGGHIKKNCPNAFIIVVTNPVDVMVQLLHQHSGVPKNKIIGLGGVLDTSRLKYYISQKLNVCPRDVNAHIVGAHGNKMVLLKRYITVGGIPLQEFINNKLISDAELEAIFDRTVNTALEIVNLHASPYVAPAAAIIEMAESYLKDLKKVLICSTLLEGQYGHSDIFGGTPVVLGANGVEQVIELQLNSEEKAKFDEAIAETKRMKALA
TEST: PfLDH activity inhibition – cell lysate, 3D7 strain, counter-screen for P. falciparum growth inhibition project (AID 2304);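 note: 0% = vehicle and 100% = reference inhibitor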
STUDY_CONDITIONS: P. falciparum 3D7 crude extract, LDH APAD/NBT absorbance; at 2 µM; stronger effect = higher value
Note: unit % is implicit; provide only the numeric part.

Sample records with inhibition:
Cc1cc(OCCCN2CCCCC2C)ccc1NC(=O)COc1ccc(Cl)cc1C(=O)c1cc(Cl)cc(C#N)c1 (centres undefined) = -2
OC(CNCc1ccccc1Oc1ccccc1)c1cccc(C(F)(F)F)c1 (centres undefined) = 10
CC1(C)CCCN(c2ncc(-c3cccc(CNCc4ccccc4O)c3)cn2)C1 = -4
Cc1cc(N[C@@H](Cc2ccccc2)C(=O)Nc2ccccc2)nc(NCCc2ccccn2)n1 = -1

Query: Please look up its inhibition: Cc1cc(-c2cnc(N)c(-c3ccc(N4CCN(C)CC4)nc3)c2)cc(C)c1O
Result: 7

Query: Please look up its inhibition: O=C(/C=C/c1ccc(Cl)c(Cl)c1)NCCCCN1CCCN(C(=O)Nc2cc(Cl)cc(Cl)c2)CC1
Result: 2

Query: Please look up its inhibition: CCc1c[nH]c2c(N(c3ccccc3)S(C)(=O)=O)cc(C(=O)N[C@@H](Cc3ccccc3)[C@H](O)CNCc3cccc(C(F)(F)F)c3)cc12
Result: 1

Query: Please look up its inhibition: COc1ccc(-c2ccc(NC(=O)c3ccc(C#N)cc3)cc2)cc1CN(C)CCN(C)C
Result: 2

Query: Please look up its inhibition: O=C(CC(=O)C(F)(F)F)c1ccccc1[N+](=O)[O-]
Result: -6
